Item-by-item account of pKi
Biological target: Recombinant Human Enteropeptidase (Homo sapiens (Human), UniProt P98073)
Sequence (P98073 whole entry): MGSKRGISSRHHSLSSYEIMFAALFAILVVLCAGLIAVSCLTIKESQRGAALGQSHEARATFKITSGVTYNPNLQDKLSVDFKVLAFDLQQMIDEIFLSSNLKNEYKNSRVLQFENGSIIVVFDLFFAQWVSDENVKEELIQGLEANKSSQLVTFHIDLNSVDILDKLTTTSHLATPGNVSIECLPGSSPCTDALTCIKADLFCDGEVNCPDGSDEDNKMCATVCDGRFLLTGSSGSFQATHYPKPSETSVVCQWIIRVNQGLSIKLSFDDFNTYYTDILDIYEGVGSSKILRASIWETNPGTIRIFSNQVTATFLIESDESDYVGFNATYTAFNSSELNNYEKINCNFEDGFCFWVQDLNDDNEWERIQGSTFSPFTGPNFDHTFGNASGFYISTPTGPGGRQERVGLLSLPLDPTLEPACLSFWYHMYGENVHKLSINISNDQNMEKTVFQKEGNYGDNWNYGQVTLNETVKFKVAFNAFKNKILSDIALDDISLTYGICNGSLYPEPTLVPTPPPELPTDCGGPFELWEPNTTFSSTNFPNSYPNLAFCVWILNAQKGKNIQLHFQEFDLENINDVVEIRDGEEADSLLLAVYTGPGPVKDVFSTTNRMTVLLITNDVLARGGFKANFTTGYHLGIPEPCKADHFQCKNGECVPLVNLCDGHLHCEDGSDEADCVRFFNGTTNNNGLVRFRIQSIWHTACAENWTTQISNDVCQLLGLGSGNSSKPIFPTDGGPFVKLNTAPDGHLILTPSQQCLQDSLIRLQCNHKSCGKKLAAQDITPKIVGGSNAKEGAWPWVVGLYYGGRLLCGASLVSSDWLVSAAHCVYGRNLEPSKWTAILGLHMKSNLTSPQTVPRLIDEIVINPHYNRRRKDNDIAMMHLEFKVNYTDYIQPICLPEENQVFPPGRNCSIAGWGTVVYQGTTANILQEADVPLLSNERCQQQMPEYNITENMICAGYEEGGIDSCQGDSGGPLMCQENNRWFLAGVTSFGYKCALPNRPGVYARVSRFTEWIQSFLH
Assay: Enteropeptidase Inhibition Assay
Details: substrate Acetyl-Asp-Asp-Asp-Asp-Lys-AFC 30 μM, 30° C., 1 hour; Ki calculated from IC50 using Cheng-Prusoff equation
A value of pKi is the negative decimal logarithm of a concentration given in moles per litre.

Below, 7 molecules whose answers are already recorded.
[
  {
    "molecule": "N=C(N)c1ccc(OC(=O)c2cnc(N3CCC(C(=O)NCC(=O)O)CC3)s2)cc1 [Example 33]",
    "target-system": "Recombinant Human Enteropeptidase (Homo sapiens (Human), UniProt P98073)",
    "pKi": 8.09
  },
  {
    "molecule": "CCN(CCC(=O)O)c1nc2ccc(C(=O)Oc3ccc(C(=N)N)cc3)cc2s1 [Example 66]",
    "target-system": "Recombinant Human Enteropeptidase (Homo sapiens (Human), UniProt P98073)",
    "pKi": 8.32
  },
  {
    "molecule": "CCN(CCC(=O)OC)c1ncc(C(=O)Oc2ccc(C(=N)N)cc2)s1 [Example 12]",
    "target-system": "Recombinant Human Enteropeptidase (Homo sapiens (Human), UniProt P98073)",
    "pKi": 8.01
  },
  {
    "molecule": "N=C(N)c1ccc(OC(=O)c2ccc3nc(N4CCC(NC(=O)c5ccccc5)CC4)sc3c2)cc1 [Example 83]",
    "target-system": "Recombinant Human Enteropeptidase (Homo sapiens (Human), UniProt P98073)",
    "pKi": 8.01
  },
  {
    "molecule": "CCn1/c(=N/CC(C)(C)C(=O)O)sc2cc(C(=O)Oc3ccc(C(=N)N)cc3F)ccc21 [Example 88]",
    "target-system": "Recombinant Human Enteropeptidase (Homo sapiens (Human), UniProt P98073)",
    "pKi": 9.80
  },
  {
    "molecule": "N=C(N)c1ccc(OC(=O)c2ccc3nc(N4CCC(C(=O)Nc5ccccc5)CC4)sc3c2)cc1 [Example 80]",
    "target-system": "Recombinant Human Enteropeptidase (Homo sapiens (Human), UniProt P98073)",
    "pKi": 7.64
  },
  {
    "molecule": "COC(=O)CCCN(C)c1nc2ccc(C(=O)Oc3ccc(C(=N)N)cc3F)cc2s1 [Example 71]",
    "target-system": "Recombinant Human Enteropeptidase (Homo sapiens (Human), UniProt P98073)",
    "pKi": 8.96
  }
]

Entry CN(CCCC(=O)O)c1nc2ccc(C(=O)Oc3ccc(C(=N)N)cc3)cc2s1 [Example 64] — recorded pKi = 8.19

These entries and their values trace back to patent US11447480B2.
